Test system: S. epidermidis Ax 25
Assay: Bacteriostatic activity (MIC), microtiter broth turbidity
Type: cell-based
Settings: Staphylococcus epidermidis, AX25; S. epidermidis Ax 25; growth inhibited by at least 80%, 24 h at 36° C.; read-out: MIC (minimal inhibitory concentration)
So basically: is MIC under 200 µg/mL? Then TRUE. Not under? Then FALSE.

Answered examples (3):
CCCCC(CC)C(=O)OCC(=O)O (stereo not shown) [compound 7] : FALSE
CC(COCC(=O)O)Cc1ccc(C(C)(C)C)cc1 (stereo not shown) [compound 1] : FALSE
CCCCCCC(CCCC)COCC(=O)O (stereo not shown) [compound 5, (2-Butyl-octyloxy)-acetic acid] : TRUE

Consider CCCCC(CC)COCC(=O)O (stereo not shown) [compound 4, (2-Ethyl-hexyloxy)-acetic acid] . Does its MIC lie strictly below 200 µg/mL? FALSE

Does this compound meet the criterion MIC < 200 µg/mL? CCCCCCCCC(CCCCCC)COCC(=O)O (stereo not shown) [compound 6, (2-Hexyl-decyloxy)-acetic acid] TRUE

---

Test system: Escherichia coli DSM 682
Assay: Bacteriostatic activity (MIC), microtiter broth turbidity
Assay type: cell-based
Settings: DSM682; Escherichia coli DSM 682; growth inhibited by at least 80%, 24 h at 36° C.; read-out: MIC (minimal inhibitory concentration)
reported-property: MIC (µg/mL)
I only need the number, in µg/mL, no unit after it.

CCCCC(CC)COCC(=O)O (stereo not shown) : 2500
CCCCCCC(CCCC)C(=O)NCC(=O)O (stereo not shown) : 1250

Summary for this molecule, CCCCCCC(CCCC)C(=O)OCC(=O)O (stereo not shown) : MIC is 2500

molecule CCCCC(CC)C(=O)OCC(=O)O (stereo not shown) , MIC observed: 2500

Data point: CC(COCC(=O)O)Cc1ccc(C(C)(C)C)cc1 (stereo not shown) ; MIC = 2500

---

Listed next: entries and their corresponding MIC.
System: S. epidermidis Ax 25
Assay: Bacteriostatic activity (MIC), microtiter broth turbidity
Assay type: cell-based
Details: Staphylococcus epidermidis, AX25; S. epidermidis Ax 25; growth inhibited by at least 80%, 24 h at 36° C.; read-out: MIC (minimal inhibitory concentration)

Here's what some known entries look like.
CCCCCCC(CCCC)C(=O)OCC(=O)O (centres unmarked) : 1250 µg/mL
CCCCCCC(CCCC)C(=O)NCC(=O)O (centres unmarked) : 1250 µg/mL

Entry CC(C)=CCCC(C)=CCCC(C)=CCO [C3, Farnesol, reference compound] ; MIC = 160 µg/mL

Looking up CCCCCCCCC(CCCCCC)C(=O)OCC(=O)O (centres unmarked) , I see its MIC listed as 10 µg/mL

The compound CCCCCCCCC(CCCCCC)C(=O)NCC(=O)O (centres unmarked) showed MIC equal to 39 µg/mL

---

Tested on: Escherichia coli DSM 682
Experiment: Bacteriostatic activity (MIC), microtiter broth turbidity
Format: cell-based
Conditions: DSM682; Escherichia coli DSM 682; growth inhibited by at least 80%, 24 h at 36° C.; read-out: MIC (minimal inhibitory concentration)
reported-property: MIC

Consider the worked cases shown below.
CCCCCCCCC(CCCCCC)C(=O)OCC(=O)O (centres unmarked) : > 2500 µg/mL
CC(C)=CCCC(C)=CCCC(C)=CCO [C3, Farnesol, reference compound] : > 10000 µg/mL
CCCCCCCCC(CCCCCC)C(=O)NCC(=O)O (centres unmarked) : ≥ 5000 µg/mL
CCCCCCCCC(CCCCCC)COCC(=O)O (centres unmarked) : > 2500 µg/mL

We now examine a further compound.
MIC recorded for this compound, CCCCCCC(CCCC)COCC(=O)O (centres unmarked) , is > 2500 µg/mL
